test_system: low-density lipoprotein receptor-related protein 1 (LRP1), minireceptor mLRPIV (Homo sapiens, UniProt Q07954)
Sequence (Q07954 3331-3778 limits assumed): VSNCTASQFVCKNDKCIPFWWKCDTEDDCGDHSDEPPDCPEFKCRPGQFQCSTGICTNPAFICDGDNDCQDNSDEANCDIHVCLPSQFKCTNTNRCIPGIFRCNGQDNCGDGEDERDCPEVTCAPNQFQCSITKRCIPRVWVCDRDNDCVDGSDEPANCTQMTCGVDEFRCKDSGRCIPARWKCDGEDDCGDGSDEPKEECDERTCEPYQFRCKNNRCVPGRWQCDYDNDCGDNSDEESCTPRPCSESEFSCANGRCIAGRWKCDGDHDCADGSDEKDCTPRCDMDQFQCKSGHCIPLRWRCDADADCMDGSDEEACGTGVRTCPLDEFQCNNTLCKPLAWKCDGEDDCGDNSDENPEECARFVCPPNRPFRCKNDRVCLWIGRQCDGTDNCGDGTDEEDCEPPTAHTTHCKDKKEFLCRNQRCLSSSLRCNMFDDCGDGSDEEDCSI
experimental_readout: pKd
# pKd = -log10(concentration in molar units)

Q) Bench note: what pKd did `Cc1nn(-c2ccc(F)cc2)c(C)c1CNC1CCN(C2CC2)CC1` show?
A) 5.10
